system: CSNK1A1L; details: concentration: 1 μM, replicates: in singlicate; n = 1
Hi there, I'd appreciate the recorded %Inh for every entry that follows.

[in] Which measured %Inh belongs to `Cn1c(=O)c(F)c(Nc2ccc(I)cc2F)c2c(=O)n(OC[C@H](O)CO)cnc21` , tested on CSNK1A1L?
[out] 0%

[in] Any idea what %Inh came out for Nc1ncnc2c1ncn2-c1cccc2ccccc12 [SKF-97184] on CSNK1A1L?
[out] 0%

[in] Which measured %Inh belongs to Nc1nccc2scc(-c3ccc4c(c3)CCN4C(=O)Cc3ccccc3)c12 [GSK2576924] , tested on CSNK1A1L?
[out] 0%

[in] What is its %Inh for CSNK1A1L? Entry: O=C(Nc1n[nH]c2cc(-c3ccccc3F)ccc12)C1CC1 [SB-733371]
[out] 15%

[in] Field: %Inh (CSNK1A1L). Entry: `CCC(=O)c1c(-c2ccccc2)c2cc(Cl)ccc2c(=O)n1Cc1cc(S(C)(=O)=O)n(CC(F)F)n1`
[out] 0%

[in] Request: %Inh, test system CSNK1A1L, entry COc1cccc(-n2cnc3c(N)ncnc32)c1 [SKF-97416]
[out] 0%

[in] Lab note: need %Inh with CSNK1A1L for entry COc1cc2ncn(-c3cc(OCCCc4ccccc4)c(C(N)=O)s3)c2cc1OC [GSK205189] , please look it up.
[out] 5%

[in] Which %Inh is reported with CSNK1A1L for this entry: `CCc1ccc(-c2ccc3c(c2)-c2nn(C)cc2S(=O)(=O)N3C)cc1` ?
[out] 0%

[in] API: value(readout= %Inh, system= CSNK1A1L, query= Cc1ccccc1COc1cc(-n2cnc3cc(Cl)ccc32)sc1C(N)=O [GW813349] );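 note: KINOMEscan kinase panel screen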
[out] 0%

Hey, just so you know, these numbers are from paper PMC5540273.
